What Kd was measured for each of the following?
Target: T1, Swi6 E80V V82E (S. pombe, UniProt P40381 1-328, E80V | V82E)
T1 sequence (looked up): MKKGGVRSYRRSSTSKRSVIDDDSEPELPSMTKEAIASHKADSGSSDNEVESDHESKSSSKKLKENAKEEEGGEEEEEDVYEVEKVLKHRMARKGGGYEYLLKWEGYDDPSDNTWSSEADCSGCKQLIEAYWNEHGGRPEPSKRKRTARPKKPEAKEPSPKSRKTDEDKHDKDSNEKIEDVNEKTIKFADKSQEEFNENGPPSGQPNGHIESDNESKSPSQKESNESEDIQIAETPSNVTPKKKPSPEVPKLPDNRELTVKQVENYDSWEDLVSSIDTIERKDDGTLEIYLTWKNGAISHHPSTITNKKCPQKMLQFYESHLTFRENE
Assay: fluorescence polarisation

1. ARTKQTARKSTGGKAY (dimethyl-lysine at 9; fluorescein (position not given)) [fluorescein labeled H3K9me2 peptide]    1070 nM

// next item, Kd requested
ARTKQTARKSTGGKAY (trimethyl-lysine at 9) [H3K9me3 peptide (fluorescence polarization)] has a reported Kd of 610 nM
